Reference source for all entries: patent US9650339B2

Tested on: Jurkat Clone E6-1
Assay: Cell proliferation assay Jurkat Clone E6-1
Assay type: cell-based
Conditions: Homo sapiens; Jurkat Clone E6-1, Acute T cell lymphoma; method of Example 5
pEC50: −log10 of the molar value.

[
  {
    "structureSmilesString": "CCN(CCN(C)C)C(=O)CNCc1cc(CNC(=O)C(F)(F)F)ccn1",
    "pEC50": "< 5.60"
  }
]

###

Parameter: pIC50. Scope: all listed entries.
Target: KDM5B (Homo sapiens, UniProt Q9UGL1)
Construct: (a.a. 1-752)
Sequence (Q9UGL1 1-752): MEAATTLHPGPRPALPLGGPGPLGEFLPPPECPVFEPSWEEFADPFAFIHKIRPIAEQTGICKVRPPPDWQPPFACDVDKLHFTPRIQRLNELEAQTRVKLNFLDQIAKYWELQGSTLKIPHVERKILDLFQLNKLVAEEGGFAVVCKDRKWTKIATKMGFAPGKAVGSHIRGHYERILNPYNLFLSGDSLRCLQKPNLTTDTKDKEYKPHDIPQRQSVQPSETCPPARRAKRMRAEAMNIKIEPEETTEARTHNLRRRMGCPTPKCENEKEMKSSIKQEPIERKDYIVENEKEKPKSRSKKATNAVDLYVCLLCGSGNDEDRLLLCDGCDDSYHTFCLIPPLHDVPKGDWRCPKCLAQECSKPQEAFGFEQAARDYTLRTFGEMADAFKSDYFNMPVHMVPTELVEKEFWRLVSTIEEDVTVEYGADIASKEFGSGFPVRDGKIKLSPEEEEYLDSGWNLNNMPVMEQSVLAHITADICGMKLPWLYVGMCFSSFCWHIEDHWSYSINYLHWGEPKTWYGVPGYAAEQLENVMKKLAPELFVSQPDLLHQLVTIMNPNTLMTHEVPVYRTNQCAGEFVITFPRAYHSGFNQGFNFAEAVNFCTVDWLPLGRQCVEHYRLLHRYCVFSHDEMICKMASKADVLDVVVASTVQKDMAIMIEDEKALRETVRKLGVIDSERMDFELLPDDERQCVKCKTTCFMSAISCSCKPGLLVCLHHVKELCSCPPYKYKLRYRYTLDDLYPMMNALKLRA
Assay: Histone lysine demethylase immunofluorescence assay, U2OS cells transfected with KDM5B
Conditions: U2OS cells transfected with pCMVHA KDM5B; mark detected H3K4me2; 20 hours
pIC50: −log10 of the molar value.

[
  {
    "molecule": "CN(C)C(=O)CNCc1cc(CNCC#N)ccn1 [Compound 13]",
    "system": "KDM5B (Homo sapiens, UniProt Q9UGL1)",
    "pIC50": "5.60 to 6.60"
  },
  {
    "molecule": "COC(=O)CNCc1cc(/C=N/C2CC2)ccn1 [Compound 59]",
    "system": "KDM5B (Homo sapiens, UniProt Q9UGL1)",
    "pIC50": "< 5.60"
  },
  {
    "molecule": "CN(C)C(=O)CNCc1cc(/C=N/CCCc2ccccc2)ccn1 [Compound 34]",
    "system": "KDM5B (Homo sapiens, UniProt Q9UGL1)",
    "pIC50": "5.60 to 6.60"
  },
  {
    "molecule": "O=Cc1ccnc(CNCCCCN(Cc2ccccc2)C2CC2)c1 [Compound 109]",
    "system": "KDM5B (Homo sapiens, UniProt Q9UGL1)",
    "pIC50": "5.60 to 6.60"
  },
  {
    "molecule": "CCN(CC)CCCCN(Cc1cc(CNC(=O)C(F)(F)F)ccn1)C(=O)C(F)(F)F [Compound 6]",
    "system": "KDM5B (Homo sapiens, UniProt Q9UGL1)",
    "pIC50": "> 6.60"
  },
  {
    "molecule": "CN(C)C(=O)CNCc1cc(CNCCF)ccn1 [Compound 14]",
    "system": "KDM5B (Homo sapiens, UniProt Q9UGL1)",
    "pIC50": "< 5.60"
  },
  {
    "molecule": "CN(C)CCCCCNCc1cc(CN)ccn1 [Compound 8]",
    "system": "KDM5B (Homo sapiens, UniProt Q9UGL1)",
    "pIC50": "> 6.60"
  },
  {
    "molecule": "O=C(CNCc1cc(/C=N/C2CC2)ccn1)NC1CCN(Cc2ccccc2)C1 (stereo not shown) [Compound 53]",
    "system": "KDM5B (Homo sapiens, UniProt Q9UGL1)",
    "pIC50": "5.60 to 6.60"
  },
  {
    "molecule": "CN(C)CC1CCC(CNCc2cc(/C=N/C3CC3)ccn2)CC1 (stereo not shown) [Compound 46]",
    "system": "KDM5B (Homo sapiens, UniProt Q9UGL1)",
    "pIC50": "> 6.60"
  },
  {
    "molecule": "CCCNCc1cc(CNC2CC2)ccn1 [Compound 12]",
    "system": "KDM5B (Homo sapiens, UniProt Q9UGL1)",
    "pIC50": "< 5.60"
  }
]
